- STUDY_SYSTEM: RAC-alpha serine/threonine-protein kinase (Homo sapiens) (UniProt P31749)
- Sequence (P31749 whole entry): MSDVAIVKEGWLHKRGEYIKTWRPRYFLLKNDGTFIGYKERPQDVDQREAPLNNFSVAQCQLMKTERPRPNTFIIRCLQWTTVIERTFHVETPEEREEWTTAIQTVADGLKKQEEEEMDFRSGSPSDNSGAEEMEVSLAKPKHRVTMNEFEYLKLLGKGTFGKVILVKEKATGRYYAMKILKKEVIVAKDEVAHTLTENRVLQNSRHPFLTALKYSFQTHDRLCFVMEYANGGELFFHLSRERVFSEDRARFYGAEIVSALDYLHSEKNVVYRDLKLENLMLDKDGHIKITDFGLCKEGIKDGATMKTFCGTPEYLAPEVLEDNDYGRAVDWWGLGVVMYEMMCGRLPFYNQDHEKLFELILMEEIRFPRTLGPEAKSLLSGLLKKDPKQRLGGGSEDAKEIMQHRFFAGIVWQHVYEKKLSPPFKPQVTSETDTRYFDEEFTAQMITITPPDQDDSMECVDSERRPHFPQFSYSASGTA
- ASSAY: Enzymatic radiometric [Km ATP] KinaseProfiler LeadHunter assay, kinase: PKB-alpha, catalogue number: 14-276KP The assay has been performed by Eurofins Discovery.
- EXPERIMENTAL_SETUP: ATP concentration 155.0 uM, Test compound concentration 10.0 uM
EXPERIMENTAL_READOUT: Activity (%)

INSERT INTO measurements (smiles_code, measured_number) VALUES
  ('CC(C)[C@H](Nc1ncnc2[nH]ccc12)c1ccc2c(c1)S(=O)(=O)CCC2', 95),
  ('CNCc1cc(-c2cc3c(N[C@@H](c4ccc5c(c4)S(=O)(=O)CCC5)C(C)C)ncnc3[nH]2)co1', 96),
  ('CC(C)[C@H](Nc1ncnc2[nH]c(-c3cnn(C)c3C#N)cc12)c1ccc2c(n1)OCCO2', 90),
  ('COc1ccc([C@@H](Cc2nnn[nH]2)NC(=O)c2ncnc3[nH]ccc23)cc1', 94),
  ('Cn1ncc(-c2cc3c(N[C@@H](c4ccc5c(n4)OCCO5)C(C)(C)C)ncnc3[nH]2)c1C#N', 103),
  ('CC(C)[C@@H](Nc1ncnc2[nH]c(C(=O)N[C@@H]3CCN(C)C3)cc12)c1ccc2c(c1)S(=O)(=O)CCC2', 88),
  ('COc1ccc([C@H](Cc2nnn[nH]2)NC(=O)c2ncnc3[nH]ccc23)cc1', 97),
  ('Cc1nn(C)cc1-c1cc2c(N[C@H](c3ccc4c(c3)S(=O)(=O)CCC4)C(C)C)ncnc2[nH]1', 91),
  ('CNC(=O)Cn1cc(-c2cc3c(N[C@@H](c4ccc5c(c4)S(=O)(=O)CCC5)C(C)C)ncnc3[nH]2)cn1', 95),
  ('CC(C)[C@@H](Nc1ncnc2[nH]ccc12)c1ccc2c(c1)S(=O)(=O)CCC2', 96),
  ('C[C@H](C(=O)O)[C@@H](NC(=O)c1ncnc2[nH]ccc12)c1ccc(Br)cc1', 95);

---

- STUDY_SYSTEM: Mitogen-activated protein kinase kinase kinase 5 (Homo sapiens)
- ASSAY: Enzymatic radiometric [Km ATP] KinaseProfiler LeadHunter assay, kinase: ASK1, catalogue number: 14-606KP The assay has been performed by Eurofins Discovery.
- EXPERIMENTAL_SETUP: ATP concentration 200.0 uM, Test compound concentration 10.0 uM
EXPERIMENTAL_READOUT: Activity (%)

INSERT INTO measurements (smiles_code, units_symbol, measured_number) VALUES
  ('COc1ccc([C@@H](Cc2nnn[nH]2)NC(=O)c2ncnc3[nH]ccc23)cc1', '%', 101),
  ('CNC(=O)Cn1cc(-c2cc3c(N[C@@H](c4ccc5c(c4)S(=O)(=O)CCC5)C(C)C)ncnc3[nH]2)cn1', '%', 103),
  ('CC(C)[C@H](Nc1ncnc2[nH]ccc12)c1ccc2c(c1)S(=O)(=O)CCC2', '%', 105),
  ('Cn1ncc(-c2cc3c(N[C@@H](c4ccc5c(n4)OCCO5)C(C)(C)C)ncnc3[nH]2)c1C#N', '%', 108),
  ('Cc1nn(C)cc1-c1cc2c(N[C@H](c3ccc4c(c3)S(=O)(=O)CCC4)C(C)C)ncnc2[nH]1', '%', 103),
  ('CC(C)[C@H](Nc1ncnc2[nH]c(-c3cnn(C)c3C#N)cc12)c1ccc2c(n1)OCCO2', '%', 106),
  ('CC(C)[C@@H](Nc1ncnc2[nH]c(C(=O)N[C@@H]3CCN(C)C3)cc12)c1ccc2c(c1)S(=O)(=O)CCC2', '%', 105),
  ('COc1ccc([C@H](Cc2nnn[nH]2)NC(=O)c2ncnc3[nH]ccc23)cc1', '%', 103),
  ('CC(C)[C@@H](Nc1ncnc2[nH]ccc12)c1ccc2c(c1)S(=O)(=O)CCC2', '%', 108),
  ('C[C@H](C(=O)O)[C@@H](NC(=O)c1ncnc2[nH]ccc12)c1ccc(Br)cc1', '%', 102);
